Ref: PubChem BioAssay (EPA / NIEHS)

Test: ATG_GATA_CIS: Attagene CIS-FACTORIAL HepG2 Assay for human GATA Binding Protein (AID 2282944)
Settings: HepG2 GATA cis-element reporter, Attagene multiplex mRNA; actives raise or lower the signal
Procedure: ATG_CIS is a cell-based, multiplexed-readout assay that uses HepG2, a human liver cell line, with measurements taken at 24 hours after chemical dosing in a 24-well plate.ATG_GATA_CIS is one of 52 assay component(s) measured or calculated from the ATG_CIS assay. […] This assay endpoint, ATG_GATA_CIS, was analyzed with bidirectional fitting relative to DMSO as the negative control and baseline of activity. […]
Activity calls are given as the source filed them. How the source made its calls: active means hit-call score of the fitted dose curve at least 0.9, where 1 is the maximum; inactive means score below 0.9.
assay-metric: outcome

| molecule | experimental-value |
| --- | --- |
| O=C1Cc2ccccc2N1c1c(Cl)cccc1Cl | inactive |
| O=S(=O)(O)C(F)(F)C(F)(F)C(F)(F)C(F)(F)C(F)(F)C(F)(F)C(F)(F)C(F)(F)C(F)(F)C(F)(F)F | inactive |
| Oc1cccc2c(O)cccc12 | inactive |
| COC(=O)CC(C(C)=O)C(=O)OC (centres undefined) | inactive |
| CCCCCc1ccc(O)cc1 | inactive |
| N=C(N)c1ccc(OCCCCCOc2ccc(C(=N)N)cc2)cc1 | inactive |
| CCCCCCc1ccc(N)cc1 | inactive |
| CCC(=O)C=Cc1ccc(OC)cc1 | inactive |
| O=C(F)C(F)(F)C(F)(F)C(F)(F)C(F)F | inactive |
| NC(C(F)(F)F)C(F)(F)F | inactive |
| NS(=O)(=O)O | inactive |
| O=S(=O)(O)c1ccc2cc(O)ccc2c1 | inactive |
| COCC1CCC(CO)CC1 (centres undefined) | inactive |
| CN(C)CCOC(c1ccccc1)c1ccccc1 | inactive |

---

assay: ATG_AP_1_CIS: Attagene CIS-FACTORIAL HepG2 Assay for human Activator Protein 1 (AP-1) (AID 2282931); conditions: HepG2 Attagene cis-factorial AP-1 reporter mRNA; actives raise or lower the signal
Activity calls are given as the source filed them. Rule for the calls: active = hit-call score of the fitted dose curve at least 0.9, where 1 is the maximum; inactive = score below 0.9.
Outcomes: active, inactive

| molecule | assigned-category |
| --- | --- |
| C=CC(F)(F)C(F)(F)C(F)(F)C(F)(F)F | inactive |
| CCCCCCCCCCCCCCCCCC[N+](C)(C)Cc1ccccc1 | inactive |
| c1cc2cccc3c4cccc5cccc(c(c1)c23)c54 | inactive |
| FCOC(C(F)(F)F)C(F)(F)F | inactive |
| Clc1ccc(Nc2nnc(Cc3ccncc3)c3ccccc23)cc1 | active |
| Cc1cncc(C)c1 | inactive |
| O=C(CCCN1CCC(O)(c2ccc(Cl)cc2)CC1)c1ccc(F)cc1 | active |
| CC1CCC(C(=O)O)CC1 (centres undefined) | inactive |
| O=P(O)(O)CCC(F)(F)C(F)(F)C(F)(F)C(F)(F)C(F)(F)C(F)(F)F | inactive |
| CCOC=O | inactive |
| CCc1cccc(CC)c1N(COC)C(=O)CS(=O)(=O)O | inactive |
| CCC(=O)C=Cc1ccc(OC)cc1 | inactive |
| CC1CNCC(C)O1 (centres undefined) | inactive |
| O=C(F)C(F)(F)C(F)(F)C(F)(F)C(F)F | inactive |

---

Read-out: Monokine induced gamma interferon (MIG), CXCL9 (gene 4283)
Test: BSK_SAg_MIG: BioMAP Diversity Plus: SAg Assay for Monokine induced gamma interferon (MIG) Biomarker Activity (AID 2283092)
Settings: primary human HUVEC with PBMC; actives raise or lower the signal
Protocol: BSK_SAg is a cell-based, multiplexed-readout assay that uses umbilical vein endothelium and peripheral blood mononuclear cells, a human vascular primary cell co-culture, with measurements taken at 24 hours after chemical dosing in a 96-well plate.BSK_SAg_MIG is an assay component measured in the BSK_SAg assay. It measures MIG antibody related to regulation of gene expression using ELISA technology.Data from the assay component BSK_SAg_MIG was analyzed into 1 assay endpoint. […]
Calls of active or inactive are those of the source. The calls were made as follows: active = hit-call score of the fitted dose curve at least 0.9, where 1 is the maximum; inactive = score below 0.9.
assay-metric: AC50

| compound | assay-metric | experimental-value |
| --- | --- | --- |
| CCCCC(CC)C(=O)OCCOCCOCCOCCOC(=O)C(CC)CCCC (stereo not given) | AC50 | inactive |
| CC(C)(C)c1ccc(O)c(O)c1 | AC50 | 34.8 µM (active) |
| Cc1ccc(C(=O)c2ccccc2)cc1 | AC50 | inactive |
| OCC(CO)(CBr)CBr | AC50 | inactive |
| O=C(NCc1ncc(C(F)(F)F)cc1Cl)c1c(Cl)cccc1Cl | AC50 | inactive |
| CN(C)CCOC(c1ccccc1)c1ccccc1 | AC50 | inactive |
| CC(=O)Nc1ccc(O)cc1 | AC50 | inactive |
| OCCN1CN(CCO)CN(CCO)C1 | AC50 | 33.1 µM (active) |
| O=C(NO)c1ccccc1 | AC50 | inactive |
| Cc1ccc(N=Nc2c(O)ccc3ccccc23)c(C)c1 | AC50 | inactive |
| O=C(CCCN1CCC(O)(c2ccc(Cl)cc2)CC1)c1ccc(F)cc1 | AC50 | inactive |
| O=S(=O)(O)C(F)(F)C(F)(F)C(F)(F)C(F)(F)C(F)(F)C(F)(F)C(F)(F)C(F)(F)C(F)(F)C(F)(F)F | AC50 | inactive |
| C=CC(=O)OCCC(F)(F)C(F)(F)C(F)(F)C(F)(F)C(F)(F)C(F)(F)C(F)(F)C(F)(F)F | AC50 | inactive |
| CS(=O)(=O)c1ccc([C@@H](CC2CCCC2)C(=O)Nc2cnccn2)cc1Cl | AC50 | inactive |
| O=P(O)(O)CCC(F)(F)C(F)(F)C(F)(F)C(F)(F)C(F)(F)C(F)(F)F | AC50 | inactive |
| O=C(O)CCC(F)(F)C(F)(F)C(F)(F)C(F)(F)C(F)(F)C(F)(F)F | AC50 | inactive |
| C=COC(=O)C(C)(C)CCCCCC | AC50 | inactive |
| Cc1cccc2c1ccc1ccccc12 | AC50 | inactive |
| Cc1[nH]nc2c1N=C(c1ccccc1Cl)c1cc([N+](=O)[O-])ccc1N2 | AC50 | 8.28 µM (active) |
| CCC(C)c1ccccc1O (stereo not given) | AC50 | inactive |
